Provenance of the data: patent US20200102387A1

The entries below are paired with their reported kon.
target: T1, human SIRPα v3-Fc (SIRPα3 extracellular domain fused to human IGHG1_Fc) (human, UniProt P78324 31-373; P0DOX5 223-449 = IgG part); test: BLI Octet, antigen-Fc on biosensor;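 further: antigen captured on the biosensor tip and then immersed in solutions of the test antibodies, which act as the analyte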
T1 construct: as m38; also called V3 (e.g. SIRPα3)
Supply the numeric figure in M⁻¹ s⁻¹, leaving out any unit text.

Consider the following illustrative entries.
binder	quantity-unit	kon
SIRPAB-7 (antibody, human IgG1, kappa, V domains shown) VH: QVQLQESGPGLVKPSQTLSLTCTVSGGSISSGEYYWEWIRQHPGKGLEWIGYIYSSGFTYYNPSLKSRVTISVDTSKNQFSLKLSSVTAADTAVYYCAREGLDGSYGSSAWGQGTLVTVSS VL: DIQLTQSPSSLSASVGDRVTITCQASQDISNYLNWYQQKPGKAPKLLIYDASNLETGVPSRFSGSGSGTDFTFTISSLQPEDIATYYCQQFAYLPYTFGGGTKVEIKR	M⁻¹ s⁻¹	702000
SIRPAB-8 (antibody, human IgG1, kappa, V domains shown) VH: QVQLVQSGAEVKKPGASVKVSCKASGYTFTSYGISWVRQAPGQGLEWMGWISPYNGNTNYAQKLQGRVTMTTDTSTSTAYMELRSLRSDDTAVYYCAREAGSSWYDFDLWGRGTLVTVSS VL: DIQMTQSPSSVSASVGDRVTITCRASQGISSWLAWYQQKPGKAPKLLIYAASNLQSGVPSRFSGSGSGTDFTLTISSLQPEDFATYYCQQGASFPITFGGGTKVEIKR	M⁻¹ s⁻¹	1.02e+06

Now let's try a different one.
Query block: // query kon value for entry SIRPAB-9 (antibody, human IgG1, kappa, V domains shown) VH: QVQLVQSGAEVKKPGASVKVSCKASGYTFGGYGISWVRQAPGQGLEWMGWISAYGGETNYAQKLQGRVTMTTDTSTSTAYMELRSLRSDDTAVYYCAREAGSSWYDFDLWGRGTLVTVSS VL: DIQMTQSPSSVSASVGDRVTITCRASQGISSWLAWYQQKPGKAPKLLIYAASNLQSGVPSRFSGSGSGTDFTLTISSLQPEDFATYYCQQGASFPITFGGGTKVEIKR
Result block: 980000
